# measured_on: Sphingosine 1-phosphate receptor 1 (Homo sapiens, UniProt P21453)
# Sequence (P21453 whole entry): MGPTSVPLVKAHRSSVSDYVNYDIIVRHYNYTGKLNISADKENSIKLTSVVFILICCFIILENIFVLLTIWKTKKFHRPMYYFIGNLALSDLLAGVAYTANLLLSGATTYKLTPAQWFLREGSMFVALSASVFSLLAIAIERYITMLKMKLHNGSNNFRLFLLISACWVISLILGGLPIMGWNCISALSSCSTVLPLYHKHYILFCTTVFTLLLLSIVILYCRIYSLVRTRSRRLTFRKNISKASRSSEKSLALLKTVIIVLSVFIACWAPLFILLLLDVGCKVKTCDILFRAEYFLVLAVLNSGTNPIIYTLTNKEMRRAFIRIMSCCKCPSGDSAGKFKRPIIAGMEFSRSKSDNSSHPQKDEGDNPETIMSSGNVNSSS
# experiment: Receptor Calcium FLIPR Antagonist Assay: The assay measures intracellular changes of Ca2+ mediated by the synthetic probing agonist 3-{[2-(2-Trifluoromethyl-biphenyl-4-yl)-benzo[b]thiophen-5-ylmethyl]-amino}-propionic acid (GNF-AC-1) in the HeLa-S1P1/Galpha16 cell clone 1: HeLa (human cervix carcinoma, ATCC CCL2) cells stably expressing N-terminally myc-tagged human S1P1 receptors (GenBank accession No. NM001400; UNIPROT P21453) and promiscuous Galpha16 protein (GenBank accession number M63904, Swissprot P30679) are cultured at 37 C., 5% CO2, and 95% relative humidity. The cells are plated in 384 well black plates (10'000 cells per well). After 24 hours the cells are loaded with Fluo-4-AM (1.6 uM in HBSS and 2.5 mM probenicid) for 1 hour at 37 C. After washing, the cells are transferred to the FLIPR. The test compounds are added at different concentrations (<=100 uM) in HBSS in the presence of 0.1% BSA and changes in fluorescence are recorded (indication of agonism).
pIC50: −log10 of the molar value.

# chem_smiles, pIC50
rows = [
    ("Cc1cc([C@H](Nc2ccc(F)c(CN3CC(C(=O)O)C3)c2)C(F)(F)F)ccc1Cl", 10.00),
    ("CC[C@@H](Nc1ccc(Cl)c(CNCCC(=O)O)c1)c1cc(C)c(Cl)c(C)c1", 8.62),
]
